Consider the following compounds and their measured Percent Effect readings.
System: Plasmodium falciparum
PROTOCOL_DETAILS: Plasmodium falciparum sporozoite viability assay; also: in the data most compounds retested in dose-response had high values
Type: functional, organism-based
Screen size: about 34,000 compounds; about 290 (0.85%) showed an effect of 50% or more. This is one part of a sample in which strong results are shown more often than they occur.
Output spec: scalar in %, unitless text.

CCc1ccc(C(=O)Nc2cccc(CN3CCCC3C(N)=O)c2)cc1 (stereo not drawn): -39.95
CC(C(=O)NCc1ccnc(N2CCOCC2)c1)n1cccn1 (stereo not drawn): 3.476
COc1ccc(CN2C[C@@H]3OCCN(C)[C@@H]3C2)cc1.O=C(O)C(F)(F)F: -4.875
Cl.NC[C@H]1CC[C@H](c2c(C(N)=O)sc3ccccc32)CC1: -7.353
Cc1cnn(CC2CCCN2C(=O)c2c(C)noc2C(C)C)c1 (stereo not drawn): 2.244
Cc1cc(CN(C)C(=O)c2ccc(OC(C)C)nc2)no1: 6.375
CC(=O)N1CCCN(C(=O)NCc2ccc(-c3ccn[nH]3)cc2)CC1: 9.841
CC(NC(=O)CCCc1nc(C(C)(C)C)no1)c1ccccn1 (stereo not drawn): 4.866
O=C1CCCN1CCCC(=O)N1CCCC(c2ccn[nH]2)C1 (stereo not drawn): 5.64
c1csc(-c2nc(CN3CCOC(Cn4cccn4)C3)cs2)c1 (stereo not drawn): 3.015

Percent Effect measured on CCc1nnc2n1CCN(CCC(=O)Nc1sccc1C#N)C2 = 5.694

Percent Effect measured on COCC(=O)N1CCOC(c2ccc(N(C)C)cn2)C1 (stereo not drawn) = -1.133

Percent Effect measured on CNC(=O)c1ccc(C2CN(C(=O)COC)CCO2)nc1 (stereo not drawn) = -16.96

----------
Test system: Plasmodium falciparum
PROTOCOL_DETAILS: Plasmodium falciparum sporozoite viability assay; also: in the data most compounds retested in dose-response had high values
Format: functional, organism-based
Out of some 34,000 compounds screened, about 290 (0.85%) showed an effect of 50% or more. The full list was thinned out, with strong results kept by preference.
MEASUREMENT_TYPE: Percent Effect (%)
Output spec: scalar in %, unitless text.

CC(=O)Nc1nc(C(=O)N2CCCCC2Cn2cc(C)cn2)cs1 (stereo unspecified): -12.14

Query O=C(O)[C@@H]1CCN(C(=O)Cc2ccccn2)[C@@H]1c1ccc(F)cc1 on Plasmodium falciparum; Percent Effect returned: 2.558

Query CC(=O)N1CCCC(Cc2cncc(Br)c2)C1 (stereo unspecified) on Plasmodium falciparum; Percent Effect returned: 6.529

Query CN(C)C(=O)CN1CCC2(CCN(S(C)(=O)=O)CC2)C1=O on Plasmodium falciparum; Percent Effect returned: 9.72

Query Cc1cc(C(=O)N2CCC3(C2)CN(c2cccnc2)C(=O)CN3C)[nH]n1.O=C(O)C(F)(F)F.O=C(O)C(F)(F)F (stereo unspecified) on Plasmodium falciparum; Percent Effect returned: 9.444

Query CNC(=O)CC1CC2(CCN(S(C)(=O)=O)CC2)c2ccccc21 (stereo unspecified) on Plasmodium falciparum; Percent Effect returned: -20.92

----------
Tested on: Plasmodium falciparum
PROTOCOL_DETAILS: Plasmodium falciparum sporozoite viability assay; also: in the data most compounds retested in dose-response had high values
Format: functional, organism-based
The campaign covered roughly 34,000 compounds. About 290 (0.85%) showed an effect of 50% or more. Shown is part of a subset that was picked to be rich in strong results.
MEASUREMENT_TYPE: Percent Effect (%)
Output spec: scalar in %, unitless text.

Cc1ccc(CN2CCCC(c3cncc(C)n3)C2)cn1 (configuration not stated): 7.699
CN(C)C(=O)CS(=O)(=O)Cc1cc(Cl)c2c(c1)OCCO2: 4.247
Cc1cncnc1C1CCN(CC2CC2)CC1: 1.471
CC(C)OC(=O)N1CCC(Cc2ccc(C(=O)O)cc2)C1 (configuration not stated): 5.074
CCc1nc(C2CCCN(C(=O)NCCOC)C2)no1 (configuration not stated): 15.54
CC(C)COCC1CN(Cc2ccco2)Cc2ncn(C)c21 (configuration not stated): 12.26

Percent Effect measured on Cl.O=C(NCC(F)F)c1cnc(C2CCCN2)cn1 (configuration not stated) = 6.016

Percent Effect measured on Cc1cccc(Nc2nccnc2C2CCCN2CC(N)=O)n1 (configuration not stated) = 7.262

Percent Effect measured on CN(C)C(=O)CN1CC[C@]2(CN(CC3CC3)C[C@H]2c2ccccc2)C1=O.O=C(O)C(F)(F)F = 2.654

Percent Effect measured on Cc1nc(C(=O)NCc2ccccn2)cc(C2CCCN2)n1 (configuration not stated) = 15.86

Percent Effect measured on O=C(NCc1ccccc1F)N1CCC(C2OCCO2)CC1 = 0.1127

Percent Effect measured on CC1=N[C@@]2(CC[C@@H]3CN(C(=O)NCCc4ccccc4)C[C@@H]32)C(=O)N1 = 2.735

Percent Effect measured on COc1ccc(NC(=O)c2cnc(C3CCN(C)CC3)nc2C)cc1 = -1.219

Percent Effect measured on COC(=O)[C@@H]1CN(C(=O)c2cscn2)C[C@H]1c1ccc(OC)cc1 = 5.827

Percent Effect measured on Cc1nn(C)c(C)c1C1CCCN1c1ncnc2sccc12 (configuration not stated) = -0.7353

Percent Effect measured on Cc1nc(CC(=O)N2CCC(c3nn(C)c4ncccc34)CC2)cs1.Cl = 3.729

Percent Effect measured on CC[C@@H](C)[C@@H](N)C(=O)Nc1cccc(-c2cnc(N(C)CCO)nc2)c1 = 4.657

All figures here come from ChEMBL document CHEMBL3988442.
